B1: USP39 (parent)
chain: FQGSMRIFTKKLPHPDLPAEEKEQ

variants of: B1; test: protein stability index of a GFP-peptide fusion (GPS, HEK-293T) (PSI 1-6); higher = more stable; details: c terminus: a fixed tail appended;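 further: lentivirally expressed fusions sorted by FACS into six bins by GFP to DsRed ratio, PSI derived from sequencing read proportions per bin multiplied by bin number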
MEASURED_QUANTITY: protein stability index
Could you respond with only the numeric value?

IN: Quickly give me recorded protein stability index for FQGSMRIFTKKLPHPDLPWEEKEQ [A19W]
OUT: 1.58

IN: Quickly give me recorded protein stability index for FQGSMRIFTKKLPHPDLPEEEKEQ [A19E]
OUT: 2.37

IN: Quickly give me recorded protein stability index for EQGSMRIFTKKLPHPDLPAEEKEQ [F1E]
OUT: 5.48

IN: Quickly give me recorded protein stability index for FQGSMRILTKKLPHPDLPAEEKEQ [F8L]
OUT: 3.28

IN: Quickly give me recorded protein stability index for FQGSMRIFTKKLAHPDLPAEEKEQ [P13A]
OUT: 2.94

IN: Quickly give me recorded protein stability index for FQGSMRIFTKKLPHPDLPAEEKQQ [E23Q]
OUT: 1.64

IN: Quickly give me recorded protein stability index for FQGSMRIFTKKLPHPDLPAENKEQ [E21N]
OUT: 2.36

IN: Quickly give me recorded protein stability index for FQGSMRIGTKKLPHPDLPAEEKEQ [F8G]
OUT: 3.48

IN: Quickly give me recorded protein stability index for FQGSMRIFTKKLPHPDLPAEEKNQ [E23N]
OUT: 2.1

IN: Quickly give me recorded protein stability index for FQGSMRIFTKKLPHPGLPAEEKEQ [D16G]
OUT: 1.97

IN: Quickly give me recorded protein stability index for FYGSMRIFTKKLPHPDLPAEEKEQ [Q2Y]
OUT: 2.92

IN: Quickly give me recorded protein stability index for FQGSMRIFTKKLPLPDLPAEEKEQ [H14L]
OUT: 2.36

IN: Quickly give me recorded protein stability index for FQGSMRIFTKKLPHPDLPAEEKEY [Q24Y]
OUT: 1.62

IN: Quickly give me recorded protein stability index for FNGSMRIFTKKLPHPDLPAEEKEQ [Q2N]
OUT: 2.85

IN: Quickly give me recorded protein stability index for FQGSMRIFTKKLPHPDLPAEEFEQ [K22F]
OUT: 1.96

IN: Quickly give me recorded protein stability index for FQGSMRIFTKKLPHVDLPAEEKEQ [P15V]
OUT: 1.62

IN: Quickly give me recorded protein stability index for FQGSMRIFNKKLPHPDLPAEEKEQ [T9N]
OUT: 2.65

IN: Quickly give me recorded protein stability index for FQGSMRIFTKKLPYPDLPAEEKEQ [H14Y]
OUT: 1.8

IN: Quickly give me recorded protein stability index for FQGSMRIHTKKLPHPDLPAEEKEQ [F8H]
OUT: 3.33

IN: Quickly give me recorded protein stability index for DQGSMRIFTKKLPHPDLPAEEKEQ [F1D]
OUT: 5.37

IN: Quickly give me recorded protein stability index for FQGSMRDFTKKLPHPDLPAEEKEQ [I7D]
OUT: 3.85

IN: Quickly give me recorded protein stability index for FQGSMRIFTSKLPHPDLPAEEKEQ [K10S]
OUT: 2.44

IN: Quickly give me recorded protein stability index for FQGSPRIFTKKLPHPDLPAEEKEQ [M5P]
OUT: 1.87

IN: Quickly give me recorded protein stability index for FQGSMRIFTKKLPHPDRPAEEKEQ [L17R]
OUT: 1.9

IN: Quickly give me recorded protein stability index for FQGSMRIFTKKLPHEDLPAEEKEQ [P15E]
OUT: 2.19

IN: Quickly give me recorded protein stability index for FQGSMFIFTKKLPHPDLPAEEKEQ [R6F]
OUT: 1.76

IN: Quickly give me recorded protein stability index for FQGSMRIFTKKLPHPPLPAEEKEQ [D16P]
OUT: 1.73

IN: Quickly give me recorded protein stability index for FQGSRRIFTKKLPHPDLPAEEKEQ [M5R]
OUT: 1.89

IN: Quickly give me recorded protein stability index for FQGSMYIFTKKLPHPDLPAEEKEQ [R6Y]
OUT: 2.24

IN: Quickly give me recorded protein stability index for FQGSMRIFTKLLPHPDLPAEEKEQ [K11L]
OUT: 1.65

IN: Quickly give me recorded protein stability index for FQGSWRIFTKKLPHPDLPAEEKEQ [M5W]
OUT: 2.14

IN: Quickly give me recorded protein stability index for FQGSMRIFTKKFPHPDLPAEEKEQ [L12F]
OUT: 1.47

IN: Quickly give me recorded protein stability index for FQGSMRIFTKKLPHPDLPAEMKEQ [E21M]
OUT: 2.23

IN: Quickly give me recorded protein stability index for FQGFMRIFTKKLPHPDLPAEEKEQ [S4F]
OUT: 1.1

IN: Quickly give me recorded protein stability index for FQGSMRIFTKKLPHPDLPAEECEQ [K22C]
OUT: 1.69

IN: Quickly give me recorded protein stability index for FQGSMRIFTKKLPMPDLPAEEKEQ [H14M]
OUT: 2.36

IN: Quickly give me recorded protein stability index for FQGSMRIFTKWLPHPDLPAEEKEQ [K11W]
OUT: 1.85

IN: Quickly give me recorded protein stability index for FQGSMRIFTKKLPHSDLPAEEKEQ [P15S]
OUT: 1.94

IN: Quickly give me recorded protein stability index for FQGTMRIFTKKLPHPDLPAEEKEQ [S4T]
OUT: 1.98

IN: Quickly give me recorded protein stability index for FQGSMRIFTKKLPHDDLPAEEKEQ [P15D]
OUT: 1.73

IN: Quickly give me recorded protein stability index for FQWSMRIFTKKLPHPDLPAEEKEQ [G3W]
OUT: 1.85

IN: Quickly give me recorded protein stability index for FQGSMCIFTKKLPHPDLPAEEKEQ [R6C]
OUT: 1.76

IN: Quickly give me recorded protein stability index for FQGSMSIFTKKLPHPDLPAEEKEQ [R6S]
OUT: 3.04

IN: Quickly give me recorded protein stability index for FQGSMRIFTKCLPHPDLPAEEKEQ [K11C]
OUT: 3.14

IN: Quickly give me recorded protein stability index for FQGSMRIFTKKLPHPDLPMEEKEQ [A19M]
OUT: 1.63

IN: Quickly give me recorded protein stability index for FQGSMRRFTKKLPHPDLPAEEKEQ [I7R]
OUT: 4.38

IN: Quickly give me recorded protein stability index for FQGSMRIQTKKLPHPDLPAEEKEQ [F8Q]
OUT: 3.77

IN: Quickly give me recorded protein stability index for FQGSMRIFTKKLPHPDLPAEEKMQ [E23M]
OUT: 1.85

IN: Quickly give me recorded protein stability index for FQGSMRIFMKKLPHPDLPAEEKEQ [T9M]
OUT: 2.03

IN: Quickly give me recorded protein stability index for FQGSMRIFTKKLPHPDLPAEEKEM [Q24M]
OUT: 2.05

IN: Quickly give me recorded protein stability index for FQGSMRIFTKNLPHPDLPAEEKEQ [K11N]
OUT: 2.35

IN: Quickly give me recorded protein stability index for FQGSMRIFTKKLPHPDLPAEEWEQ [K22W]
OUT: 1.93

IN: Quickly give me recorded protein stability index for FQKSMRIFTKKLPHPDLPAEEKEQ [G3K]
OUT: 3.37

IN: Quickly give me recorded protein stability index for FQGSMRIFTKKLPHPDLPAEWKEQ [E21W]
OUT: 1.32

IN: Quickly give me recorded protein stability index for FQGSMRIFTKKLCHPDLPAEEKEQ [P13C]
OUT: 2.05

IN: Quickly give me recorded protein stability index for FQGSMRIFTKKLPHPFLPAEEKEQ [D16F]
OUT: 2.16

IN: Quickly give me recorded protein stability index for FQGSMRIFTKKLPFPDLPAEEKEQ [H14F]
OUT: 1.92

IN: Quickly give me recorded protein stability index for FQGHMRIFTKKLPHPDLPAEEKEQ [S4H]
OUT: 1.69

IN: Quickly give me recorded protein stability index for FQGSMRIFTKKLPHPDLPAEEGEQ [K22G]
OUT: 2.13

IN: Quickly give me recorded protein stability index for FQGSMRIFTKKLPHPDLPAEEKTQ [E23T]
OUT: 1.61

IN: Quickly give me recorded protein stability index for FQGSMRIFTNKLPHPDLPAEEKEQ [K10N]
OUT: 2.81

IN: Quickly give me recorded protein stability index for FQGSMRIFTKKLPHPDLPCEEKEQ [A19C]
OUT: 1.96

IN: Quickly give me recorded protein stability index for FQNSMRIFTKKLPHPDLPAEEKEQ [G3N]
OUT: 2.2

IN: Quickly give me recorded protein stability index for FQGSMRIFTKKYPHPDLPAEEKEQ [L12Y]
OUT: 2

IN: Quickly give me recorded protein stability index for FQGSTRIFTKKLPHPDLPAEEKEQ [M5T]
OUT: 1.61

IN: Quickly give me recorded protein stability index for LQGSMRIFTKKLPHPDLPAEEKEQ [F1L]
OUT: 4.29

IN: Quickly give me recorded protein stability index for FQGSMRIFTKKLPHPDLPAEEKEL [Q24L]
OUT: 1.91

IN: Quickly give me recorded protein stability index for FQGSMRYFTKKLPHPDLPAEEKEQ [I7Y]
OUT: 2.12

IN: Quickly give me recorded protein stability index for FQGSSRIFTKKLPHPDLPAEEKEQ [M5S]
OUT: 1.61

IN: Quickly give me recorded protein stability index for FQGSMRIFTKKLPHPDLPHEEKEQ [A19H]
OUT: 2.25

IN: Quickly give me recorded protein stability index for FQGSMRIFTKKIPHPDLPAEEKEQ [L12I]
OUT: 1.91

IN: Quickly give me recorded protein stability index for FWGSMRIFTKKLPHPDLPAEEKEQ [Q2W]
OUT: 2.82

IN: Quickly give me recorded protein stability index for FQGSMRIFTKKLPHPKLPAEEKEQ [D16K]
OUT: 1.94

IN: Quickly give me recorded protein stability index for FQGSMRIFTKKLPHPDLFAEEKEQ [P18F]
OUT: 2.11

IN: Quickly give me recorded protein stability index for FQGSMRIFTKKLPHPDTPAEEKEQ [L17T]
OUT: 2.1

IN: Quickly give me recorded protein stability index for FQGSMRIFTKKLPHPDLPAEEVEQ [K22V]
OUT: 2.48

IN: Quickly give me recorded protein stability index for FQGEMRIFTKKLPHPDLPAEEKEQ [S4E]
OUT: 2.28

IN: Quickly give me recorded protein stability index for FQGSMRIFTKKRPHPDLPAEEKEQ [L12R]
OUT: 1.32

IN: Quickly give me recorded protein stability index for FQGSMRIFTKKLIHPDLPAEEKEQ [P13I]
OUT: 1.86

IN: Quickly give me recorded protein stability index for FQGSMRIFTKKLPHPDLPAEEKYQ [E23Y]
OUT: 1.66

IN: Quickly give me recorded protein stability index for FQGSMRIFKKKLPHPDLPAEEKEQ [T9K]
OUT: 2.08

IN: Quickly give me recorded protein stability index for FQGSMRIFTKGLPHPDLPAEEKEQ [K11G]
OUT: 1.94

IN: Quickly give me recorded protein stability index for FQGSMRIFTKKLPDPDLPAEEKEQ [H14D]
OUT: 2.18

IN: Quickly give me recorded protein stability index for FQGSMRIFTKKLPHPDLPAEGKEQ [E21G]
OUT: 1.88

IN: Quickly give me recorded protein stability index for FQGSMRIFTKKNPHPDLPAEEKEQ [L12N]
OUT: 2.05

IN: Quickly give me recorded protein stability index for FQGSMRIFTKKLPVPDLPAEEKEQ [H14V]
OUT: 1.88

IN: Quickly give me recorded protein stability index for FQGSMRIFTKKLGHPDLPAEEKEQ [P13G]
OUT: 2.1

IN: Quickly give me recorded protein stability index for FQGSMRIFTKKLPHPDLPAEEQEQ [K22Q]
OUT: 1.62

IN: Quickly give me recorded protein stability index for FQGSMRIFTKRLPHPDLPAEEKEQ [K11R]
OUT: 2.06

IN: Quickly give me recorded protein stability index for FQGSYRIFTKKLPHPDLPAEEKEQ [M5Y]
OUT: 1.85

IN: Quickly give me recorded protein stability index for FQGSMRIFTKKLPHPDAPAEEKEQ [L17A]
OUT: 1.99
